B1: EIF5 (parent)
chain: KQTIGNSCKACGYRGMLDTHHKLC

- Variants of: B1
- ASSAY_COMMENT: protein stability index of a GFP-peptide fusion (GPS, HEK-293T) (PSI 1-6); higher = more stable;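 note: lentivirally expressed fusions sorted by FACS into six bins by GFP to DsRed ratio, PSI derived from sequencing read proportions per bin multiplied by bin number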
- CONDITION_INFO: c terminus: a fixed tail appended
Assign class by protein stability index: not lower than 3 means fulfilled; lower than 3 means not fulfilled.

Some solved entries appear below for comparison.
S7Y    fulfilled
A10L    fulfilled
A10S    fulfilled
Y13Q    fulfilled
G12V    not fulfilled
K22G    not fulfilled
M16D    fulfilled
L23C    fulfilled

Alright, here's another variant for you.
Please tell me: is the variant K1Q at or over 3 in terms of protein stability index?
fulfilled
